tested on: HCT-116; assay: Antiproliferative activity against human HCT-116 cells assessed as cell growth inhibition incubated for 3 days by SRB assay; format: functional, cell-based; conditions: HCT-116, 72 h
Exercise: for every item that follows, state its recorded IC50.
The response must be a number in µM with no trailing unit.

*Q* Item `CS(=O)(=O)c1ccc(C(=O)Nc2ccc(Cl)c(-c3ccc(C4(N)CC4)cc3)c2)c(Cl)c1` with HCT-116 - IC50?
*A* 26

*Q* Which IC50 is reported with HCT-116 for this entry: `CS(=O)(=O)c1ccc(C(=O)Nc2ccc(Cl)c(-c3ccc4c(c3)CNC4)c2)c(Cl)c1` ?
*A* 38.1

*Q* Record lookup: for HCT-116, what IC50 belongs to `CS(=O)(=O)c1ccc(C(=O)Nc2ccc(Cl)c(-c3ccc4c(c3)CCNC4)c2)c(Cl)c1` ?
*A* 24.2

*Q* Test system HCT-116; read-out IC50; what value for `Cc1ccc2c(N)c(C(=O)N[C@H]3CCc4cc(N5CC6CCC(C5)N6)ccc4C3)sc2n1` ?
*A* 0.19

The reported measurements were obtained from ChEMBL document CHEMBL5325426.
